- Assay Overview: Cytotoxicity against mouse J774 cells assessed as cell viability at 100 ug/ml after 24 hrs by MTT assay
- Format: cell-based
- Reported Conditions: read-out: Activity
Note to self: use Fulfilled only for viability at 24 h, 100 ug/ml readings below 80%; a reading exactly at 80% still gets Not fulfilled.

> print(dat)
                              sample.smiles  category.label
1  COc1ccc(CN2CCN(C[C@@H](O)[C@H](Cc3ccccc3)NC(=O)OC(C)(C)C)CC2)cc1   Not fulfilled
2  CC(C)(C)OC(=O)N[C@@H](Cc1ccccc1)[C@H](O)CN1CCN(Cc2ccccc2)CC1   Not fulfilled
3  CC(C)(C)OC(=O)N[C@@H](Cc1ccccc1)[C@H](O)CN1CCNCC1       Fulfilled
4  CC(C)(C)OC(=O)N[C@@H](Cc1ccccc1)[C@H](O)CN1CCN(Cc2ccc(Cl)cc2)CC1   Not fulfilled
5  CC(C)(C)OC(=O)N[C@@H](Cc1ccccc1)[C@H](O)CN1CCN(c2ccccc2)CC1       Fulfilled
6  CN1CCN(C[C@@H](O)[C@H](Cc2ccccc2)NC(=O)OC(C)(C)C)CC1   Not fulfilled
7  COc1ccc(CN2CCN(C[C@@H](O)[C@H](Cc3ccccc3)NC(=O)OC(C)(C)C)CC2)cc1OC   Not fulfilled
8  CC(C)(C)OC(=O)N[C@@H](Cc1ccccc1)[C@H](O)CN1CCN(Cc2ccc(N)cc2)CC1   Not fulfilled
9  CC(C)(C)OC(=O)N[C@@H](Cc1ccccc1)[C@H](O)CN1CCN(Cc2ccc(F)cc2)CC1   Not fulfilled

* * *

- Assay Overview: Cytotoxicity against mouse J774 cells assessed as cell viability at 10 ug/ml after 24 hrs by MTT assay
- Assay type: cell-based
- Reported Conditions: read-out: Activity
viability at 24 h, 10 ug/ml values for the molecules below.
Measured Metric: viability at 24 h, 10 ug/ml (%)

> print(dat)
                              sample.smiles  observed
1  CC(C)(C)OC(=O)N[C@@H](Cc1ccccc1)[C@H](O)CN1CCN(c2ccccc2)CC1        94
2  CC(C)(C)OC(=O)N[C@@H](Cc1ccccc1)[C@H](O)CN1CCN(Cc2ccc(Cl)cc2)CC1       100
3  CC(C)(C)OC(=O)N[C@@H](Cc1ccccc1)[C@H](O)CN1CCNCC1       100

* * *

- Assay Overview: Cytotoxicity against mouse J774 cells assessed as cell viability at 1 ug/ml after 24 hrs by MTT assay
- Format: cell-based
- Reported Conditions: read-out: Activity
Measured Metric: viability at 24 h, 1 ug/ml (%)

> print(dat)
                               sample.smiles  unit.of.measure  observed
 1  CC(C)(C)OC(=O)N[C@@H](Cc1ccccc1)[C@H](O)CN1CCN(Cc2ccc(Cl)cc2)CC1                %       100
 2  CC(C)(C)OC(=O)N[C@@H](Cc1ccccc1)[C@H](O)CN1CCN(Cc2ccccc2)CC1                %       100
 3  CC(C)(C)OC(=O)N[C@@H](Cc1ccccc1)[C@H](O)CN1CCNCC1                %       100
 4  CC(C)(C)OC(=O)N[C@@H](Cc1ccccc1)[C@H](O)CN1CCN(Cc2ccc([N+](=O)[O-])cc2)CC1                %       100
 5  CC(C)(C)OC(=O)N[C@@H](Cc1ccccc1)[C@H](O)CN1CCN(c2ccccc2)CC1                %        95
 6  COc1ccc(CN2CCN(C[C@@H](O)[C@H](Cc3ccccc3)NC(=O)OC(C)(C)C)CC2)cc1                %       100
 7  CC(C)(C)OC(=O)N[C@@H](Cc1ccccc1)[C@H](O)CN1CCN(Cc2ccc3c(c2)OCO3)CC1                %        98
 8  CN1CCN(C[C@@H](O)[C@H](Cc2ccccc2)NC(=O)OC(C)(C)C)CC1                %       100
 9  CC(C)(C)OC(=O)N[C@@H](Cc1ccccc1)[C@H](O)CN1CCN(Cc2ccc(F)cc2)CC1                %       100
10  COc1ccc(CN2CCN(C[C@@H](O)[C@H](Cc3ccccc3)NC(=O)OC(C)(C)C)CC2)cc1OC                %       100
11  CC(C)(C)OC(=O)N[C@@H](Cc1ccccc1)[C@H](O)CN1CCN(Cc2ccc(N)cc2)CC1                %        98
